Target: T1, Human AXL-Fc (R&D Systems, #154-AL) (human, UniProt P30530 26-451)
T1 construct: Bought reagent; also called human AXL-Fc fusion protein; human AXL-Fc protein; not shown: Fc part of the bought fusion protein
T1 sequence: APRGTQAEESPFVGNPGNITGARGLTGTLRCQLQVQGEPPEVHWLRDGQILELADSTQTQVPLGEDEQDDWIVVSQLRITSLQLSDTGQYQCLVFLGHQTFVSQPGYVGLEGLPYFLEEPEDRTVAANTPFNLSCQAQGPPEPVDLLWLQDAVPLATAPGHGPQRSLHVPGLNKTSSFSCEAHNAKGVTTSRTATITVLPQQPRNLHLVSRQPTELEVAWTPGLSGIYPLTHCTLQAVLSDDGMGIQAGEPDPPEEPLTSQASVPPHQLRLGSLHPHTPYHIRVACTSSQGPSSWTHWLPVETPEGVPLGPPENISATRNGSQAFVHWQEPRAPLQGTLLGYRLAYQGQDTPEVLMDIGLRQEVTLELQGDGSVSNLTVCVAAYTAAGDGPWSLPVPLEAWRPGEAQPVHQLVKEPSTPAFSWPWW
Assay: ELISA on plate-adsorbed human AXL-Fc (1 ug/ml), 5-fold antibody dilution series, AP-conjugated goat anti-human IgG, fluorescent substrate (Example 13)
# key: entry, value: EC50 (read off the curve)

{"binder": "h#11B7-T12 (antibody, human IgG1, kappa, V domains shown, Humanized IgG1/kappa) VH: QVQLQESGPGLVKPSETLSLTCTVSGYSITSNYWGWIRQPPGKGLEWIGYITYSGSTSYNPSLKSRVSISRDTSKNQFSLKLSSVTAADTAVYYCAITTFYYWGQGTLVTVSS VL: DIQMTQSPSSLSASVGDRVTITCRASQDIGNYLRWYQQKPGKAPKLMISGATNLAAGVPSRFSGSGSGSDFTLTISSLQPEDFATYYCLQSKESPWTFGQGTKVEIKR", "measurement name": "EC50 (read off the curve)", "obs value": "~0.04 µg/mL"}

Tell me EC50 (read off the curve) reported for h#11B7-T7 (antibody, human IgG1, kappa, V domains shown, Humanized IgG1/kappa) VH: QVQLQESGPGLVKPSETLSLTCTVSGYSITSNYWGWIRQPPGKGLEWIGYITYSGSTSYNPSLKSRVSISRDTSKNQFSLKLSSVTAADTAVYYCAITTFYYWGQGTLVTVSS VL: DIQMTQSPSSLSASVGDRVTITCRASQDIGNYLRWYQQKPGKAPKLMISGATNLAAGVPSRFSGSGSGSDYTLTISSLQPEDFATYYCLQSKESPWTFGQGTKVEIKR ~0.03 µg/mL
